# Test system: HIV-1 (strain LAV)
# Test Protocol: Inhibition of HIV-1 replication in human PBM cells (reverse transcriptase readout)
# Assay type: cell-based
# Condition Details: Human immunodeficiency virus 1, PBMC, 144 h, HIV-1 strain LAV, day 6, read-out: Antiviral Activity EC50
Quantity Kind: pEC50
Keep in mind that pEC50 stands for -log10 of concentration in molar terms.

**Q:** Given the molecule [N-]=[N+]=NC1C[C@H](CO)O[C@@H]1n1cc(F)c(N)nc1=O (stereo partly drawn) [L-2′-A-5-FddC] , write its reported pEC50.
**A:** 6.00

**Q:** Supply reported pEC50 belonging to this molecule: [N-]=[N+]=NC1C[C@@H](n2cc(F)c(N)nc2=O)O[C@H]1CO (stereo partly drawn) [L-3′-A-5-FddC]
**A:** 7.30

----------
# Test Protocol: Cytotoxicity in uninfected human PBM cells (trypan blue cell count)
# Format: cell-based
# Condition Details: mitogen-stimulated uninfected human PBM cells, six days
Hi there, I'd appreciate the recorded IC50 at 6 days for every entry that follows.

**Q:** Retrieve IC50 at 6 days measured for [N-]=[N+]=NC1C[C@@H](n2cc(F)c(N)nc2=O)O[C@H]1CO (some centres unmarked) and print it.
**A:** > 100 µM

**Q:** Please report IC50 at 6 days for the following compound: [N-]=[N+]=NC1C[C@H](CO)O[C@@H]1n1cc(F)c(N)nc1=O (some centres unmarked)
**A:** > 100 µM

----------
Assign IC50 to each entry below.
# Test Protocol: Cytotoxicity in CEM cells
# Type: cell-based
# Condition Details: human

**Q:** Return IC50 for the following molecule: [N-]=[N+]=NC1C[C@@H](n2cc(F)c(N)nc2=O)O[C@H]1CO (some centres unmarked)
**A:** > 100 µM

**Q:** Provide only the value of recorded IC50 for [N-]=[N+]=NC1C[C@H](CO)O[C@@H]1n1cc(F)c(N)nc1=O (some centres unmarked)
**A:** > 100 µM
